- assay.procedure: Methylene blue experiment for H2S release in PBS buffer in presence of cysteine or GSH
- Format: physicochemical
- reported.conditions: PBS buffer pH 7.4; donor 150 μM; 1.5 mM GSH; experimental period 3 hours
measure.name: GSH [H2S] at peaking time (µM)

A. CC(C)C(=O)SNC(=O)c1ccccc1
B. COc1ccccc1C(=O)SNC(=O)c1ccccc1
C. O=C(NSC(=O)c1cccc(Cl)c1)c1ccccc1
Arrange these 3 compounds in increasing order of GSH [H2S] at peaking time. Give the labels in the order requested.
B, A, C
(B: 48.3 µM, A: 101.1 µM, C: 146.5 µM)

----------
- assay.procedure: Methylene blue experiment for H2S release in PBS buffer in presence of cysteine or GSH
- Assay type: physicochemical
- reported.conditions: PBS buffer pH 7.4; donor 150 μM; 1.5 mM GSH; experimental period 3 hours
The entries below come with measured GSH Peaking time values attached.
Write the value in min as a bare number.

Worked examples follow.
molecule	measure.name	unit.abbrev	value
CC(=O)NSC(=O)c1ccccc1	GSH Peaking time	min	39
Cc1cccc(C(=O)SNC(=O)c2ccccc2)c1	GSH Peaking time	min	39
CCCC(=O)SNC(=O)c1ccccc1	GSH Peaking time	min	40
O=C(NSC(=O)c1ccccc1)c1ccccc1 [Compound 2, N-(benzoylthio)benzamide]	GSH Peaking time	min	39
CCCC(=O)NSC(=O)c1ccccc1	GSH Peaking time	min	39

Which GSH Peaking time value belongs to COc1ccc(C(=O)SNC(=O)c2ccccc2)cc1 ?
40

----------
- assay.procedure: Methylene blue experiment for H2S release in PBS buffer in presence of cysteine or GSH
- Assay type: physicochemical
- reported.conditions: PBS buffer pH 7.4; donor 150 μM; 1.5 mM cysteine
measure.name: Cys [H2S] at peaking time (µM)

Worked examples follow.
compound	Cys [H2S] at peaking time, µM
Cc1ccccc1C(=O)NSC(=O)c1ccccc1 [Compound 24]	146.9
O=C(NSC(=O)c1cccc(Cl)c1)c1ccccc1 [Compound 5]	142.1
COc1ccc(C(=O)SNC(=O)c2ccccc2)cc1 [Compound 11]	92.4
CCC(=O)NSC(=O)c1ccccc1 [Compound 28]	120.9
Cc1cccc(C(=O)SNC(=O)c2ccccc2)c1 [Compound 7]	141.8
COc1ccccc1C(=O)SNC(=O)c1ccccc1 [Compound 9]	52.8
CCC(=O)SNC(=O)c1ccccc1 [Compound 20]	106.1
O=C(NSC(=O)C(c1ccccc1)c1ccccc1)c1ccccc1 [Compound 32]	45.6
O=C(NSC(=O)C1CCCC1)c1ccccc1 [Compound 17]	100.6

a. O=C(NSC(=O)c1ccc(C(F)(F)F)cc1)c1ccccc1 [Compound 4]
b. O=C(NSC(=O)c1ccccc1)Nc1ccccc1
Sorting by Cys [H2S] at peaking time in descending order, would a or b appear first? Identify your selection by its label.
a
(a: 110.0 µM, b: 33.9 µM)

----------
- assay.procedure: Methylene blue experiment for H2S release in PBS buffer in presence of cysteine or GSH
- Type: physicochemical
- reported.conditions: PBS buffer pH 7.4; donor 150 μM; 1.5 mM GSH; experimental period 3 hours
measure.name: GSH [H2S] at peaking time (µM)

compound	unit.abbrev	value
O=C(Cc1ccccc1)SNC(=O)c1ccccc1 [Compound 30]	µM	104.9
CC(=O)NSC(=O)c1ccccc1 [Compound 27]	µM	149.6
COc1ccc(C(=O)SNC(=O)c2ccccc2)cc1 [Compound 11]	µM	100.5
CCCC(=O)SNC(=O)c1ccccc1 [Compound 22]	µM	122.3
Cc1cccc(C(=O)SNC(=O)c2ccccc2)c1 [Compound 7]	µM	131.0

----------
- assay.procedure: Methylene blue experiment for H2S release in PBS buffer in presence of cysteine or GSH
- Type: physicochemical
- reported.conditions: PBS buffer pH 7.4; donor 150 μM; 1.5 mM GSH; experimental period 3 hours
measure.name: GSH [H2S] at peaking time (µM)

compound	measure.name	value
Cc1ccc(C(=O)SNC(=O)c2ccccc2)cc1 [Compound 8]	GSH [H2S] at peaking time	100.3
O=C(NSC(=O)C1CCCC1)c1ccccc1 [Compound 17]	GSH [H2S] at peaking time	110.9
CCC(=O)SNC(=O)c1ccccc1 [Compound 20]	GSH [H2S] at peaking time	103.6
O=C(NSC(=O)c1ccccc1)c1ccccc1 [Compound 2, N-(benzoylthio)benzamide]	GSH [H2S] at peaking time	140.4
CC(=O)SNC(=O)c1ccccc1 [Compound 19]	GSH [H2S] at peaking time	116.1
COc1cccc(C(=O)SNC(=O)c2ccccc2)c1 [Compound 10]	GSH [H2S] at peaking time	133.6
CC(=O)NC(C(=O)NCc1ccccc1)C(C)(C)SSC(=O)c1ccccc1 (stereo not shown) [Compound 34]	GSH [H2S] at peaking time	137
